These entries and their values trace back to ChEMBL document CHEMBL6092172.

- Test system: Plasmodium berghei
- method: Antiplasmodial activity against exo-erythrocytic stage Plasmodium berghei sporozoites expressing GFP-Luc fused genes infected in human HepG2-A16-CD81 cells expressing EGFP assessed as reduction in parasite growth measured after 48 hrs by bioluminescence analysis
- Assay type: functional, organism-based
- experimentalConditions: HepG2-A16-CD81, 48 h
observationType: pEC50
Formally, pEC50 is defined as -log10 of the concentration c, with c in mol/L.

Give the measured pEC50 for `CNC(=O)c1ccc(CN(C2CC2)S(=O)(=O)c2c(C)cc(C)cc2C)cc1`
7.15
